# experimental target: T1, human Trop-2-His protein (human, UniProt P09758 27-274)
# T1 construct: extracellular domain; Assay paragraphs say only 'Trop-2-His'; also called hTrop-2; Kactus Cat #TRP-HM121; not shown: His tag
# T1 sequence (looked up): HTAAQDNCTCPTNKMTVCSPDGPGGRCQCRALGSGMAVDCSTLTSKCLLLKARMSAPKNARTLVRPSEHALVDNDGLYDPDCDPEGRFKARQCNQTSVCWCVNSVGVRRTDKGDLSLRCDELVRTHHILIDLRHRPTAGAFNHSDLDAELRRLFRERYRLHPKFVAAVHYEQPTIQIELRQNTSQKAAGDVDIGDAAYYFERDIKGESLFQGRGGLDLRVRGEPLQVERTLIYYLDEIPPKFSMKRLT
# test method notes: ELISA, coated Trop-2 protein
measurement name: EC50

INSERT INTO results (binder, reported) VALUES
  ('9D7 (antibody, V domains shown, Rabbit-derived clone; LEM construct: VH + rabbit IgG CH1 + human IgG1 CH2-CH3) VH: QSLEESGGDLVQPGASLTLTCKASGFDLNNYSILWVRQAPGKGLEWIGCIYISGGSTYYANWAKGRFAISKTSSTTVTLQMTSLTAADTATYFCARDDGTASYYLNLWGPGTLVTVSS VL: YDMTQTPASVSEPVGGTVTIKCQASEDIYKLLAWYQQKPGQPPKLLIYAASDLESGVPSRFKGRGSGTDYTLTISDLECADAATYYCQQAYTIGNIDNSFGGGTEVVVK', '0.017 nM'),
  ('66A1 (antibody, V domains shown, Rabbit-derived clone; LEM construct: VH + rabbit IgG CH1 + human IgG1 CH2-CH3) VH: QEQLKESGGGLVQPGGSLKLSCKASGFDFNNYGVSWVRQAPGKGLEWIAYIYPAFHNTYYASWVNGRFTISSHNAQNTLYLQLNSLTAADTATYFCARDAGGTDYAYNLWGPGTLVTVSS VL: DVVMTQTPASVEAAVGGTVSINCQASEDIESYLAWYQQKPGQPPKLLIYKASTLASGVSSRFKGSGSGKQFTLTISGVECADAATYYCQQVLTIGNVDNPFGGGSEVVVK', '0.013 nM'),
  ('62E3 (antibody, V domains shown, Rabbit-derived clone; LEM construct: VH + rabbit IgG CH1 + human IgG1 CH2-CH3) VH: QEQLKESGGGLVQPGGSLKLSCKASGFDFNEYGVSWVRQAPGKGLEWIAYIYPAFHNTYYATWVNGRFTISSHNAQNTLYLQLNTLTAADTATYFCARDAGTTDYNFNLWGPGTLVTVSS VL: DVVMTQTASPVSAAVGGTVTIKCQASEDIESYLAWYQQKPGQPPKLLIYEASKLASGVSSRFSGSGYGTEFTLTISGVECADAATYYCQQALTIGNVDNPFGGGSEVVVK', '0.018 nM'),
  ('10A9-2 (antibody, V domains shown) VH: QSLEESGGDLVQPGASLTLTCKASGFDLNNYAMLWVRQAPGKGLEWIGSIYISGGTTYFASWATGRFAISKTSSTTVTLQMTSLTAADTATYFCARDDGTTSYYLNLWGPGTLVTVSS VL: YDMTQTPASVSAAVGGTVTIKCQASEDIYSLLAWYQQKPGQPPKLLIYGASNLESGVPSRFKGSGSGTEYTLTISDLEADDAATYYCQQAYTIGNIDNAFGGGTEVVVK', '0.014 nM'),
  ('65D5 (antibody, V domains shown, Rabbit-derived clone; LEM construct: VH + rabbit IgG CH1 + human IgG1 CH2-CH3) VH: QEQLKESGGGLVQPGGSLKLSCKASGFDFNAYGVSWVRQAPGKGLEWIAYIYPAFHNTYYATWVNGRFTISSHNAQNTLYLQLNTLTAADTATYFCARDAGTTDYNFNLWGPGTLVTVSS VL: DIVMTQTPASVSEPVGGTVTIKCQASQSISSYLAWYQQKPGQPPKLLIYEATKLTSGVSSRFSGSGYGTEFTLTISGVECADAATYYCQQALTVGDVDNPFGGGSEVVVK', '0.019 nM');
